Data origin, for the record: PubChem BioAssay (NCI)

- Test system: HCT-15 colon
- assay.name: NCI tumour cell line growth inhibition, 48 h
endpoint.label: TGI

Take a look at these entries with their results.
compound: C=CCC1(O)c2ccccc2C(=O)c2c(NCCN(CC(=O)OCC)CC(=O)OCC)cccc21 (configuration not stated)
TGI: > 100 µM

compound: CC[C@@H]1CC[C@@H]2[C@H](CC[C@]3(C)[C@@H](OS(=O)(=O)c4ccc(C)cc4)CC[C@@H]23)[C@H]1COS(=O)(=O)c1ccc(C)cc1
TGI: > 100 µM

compound: COC(=O)CNS(=O)(=O)c1ccc(-c2c3nc(c(-c4ccc(S(=O)(=O)NCC(=O)OC)cc4)c4ccc([nH]4)c(-c4ccc(S(=O)(=O)NCC(=O)OC)cc4)c4nc(c(-c5ccc(S(=O)(=O)NCC(=O)OC)cc5)c5ccc2[nH]5)C=C4)C=C3)cc1
TGI: > 100 µM

compound: COc1cc(Nc2c(C#N)cnc3cc(OCCCN4CCN(C)CC4)c(OC)cc23)c(Cl)cc1Cl
TGI: 11.8 µM

Ask: Query for HCT-15 colon: what TGI does the record show for COc1ccc(C(=O)c2sc(Nc3ccc(Cl)cc3)nc2N)cc1 ?
Result: > 100 µM

Ask: And what about the compound COc1cc([C@@H]2c3cc4c(cc3[C@@H](OC(=O)c3ccc(N)cc3)C3COC(=O)[C@@H]32)OCO4)cc(OC)c1O (some centres not stated) ?
Result: 56.1 µM

Ask: And what about the compound Cc1nn(C(=O)Cc2ccccc2)c2c1C(c1ccc(O)cc1O)SC(N)=N2 (configuration not stated) ?
Result: > 100 µM
